Target: L3 (DV1-GV8), soluble leucine zipper γδ TCR heterodimer of a delta variable 1 chain and a gamma variable 8 … (human)
Sequence (chain, as listed by the source mutant, chain 1 of 2): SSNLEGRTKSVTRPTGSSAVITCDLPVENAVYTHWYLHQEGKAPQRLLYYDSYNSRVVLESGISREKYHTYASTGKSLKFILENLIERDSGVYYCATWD
Sequence (chain, as listed by the source mutant, chain 2 of 2): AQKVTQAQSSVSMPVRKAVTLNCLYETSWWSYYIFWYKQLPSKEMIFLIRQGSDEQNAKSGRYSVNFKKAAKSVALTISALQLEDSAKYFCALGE
Assay: DELFIA ELISA, coated antigen;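 also: binding of antibody supernatants or protein-A purified antibodies to plate-coated antigen (3 µg/ml recombinant TCR or BSA), 1 h incubation at room temperature, DELFIA readout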
measurement label: DELFIA ELISA response (FU)
Numbers only here, please. The scale is FU.

>>> measured_result("G4_3 (antibody, human IgG1, V domains shown, also called 1139_P01_A04; G4_03) VH: EVQLVESGGGLVQPGGSLRLSCAASGFTFSSYSMNWVRQAPGKGLEWVSSISSSSSYIYYADSVKGRFTISRDNSKNTLYLQMNSLRAEDTAVYYCARGGWLYDYWGQGTLVTVSS VL: DIQMTQSPSSLSASVGDRVTITCQASQDISNYLNWYQQKPGKAPKLLIYDASNLETGVPSRFSGSGSGTDFTLTISSLQPEDFATYFCQQSYSTPQTFGQGTKVDIKR")
239
>>> measured_result("G4_16 (antibody, human IgG1, V domains shown, also called 1248_P02_D10; clone G4_16) VH: EVQLLESGAEVKKPGASVKVSCKASGYTFTSYGISWVRQAPGQGLEWMGWISAYNGNTNYAQKLQGRVTMTTDTSTSTAYMELRSLRSDDTAVYYCARDYGDFYGMDVWGQGTLVTVSS VL: SQSVLTQPPSASGSPGQSVTFSCTGTSSDIGAFNSVSWYQQHPGKAPKLLIYEITKRPSGVPDRFSGSKSGNTASLTISVLQAEDEADYYCTSYAGSNTLIFGGGTKVTVLG")
118

Let's switch to this binder now.
Value of measured DELFIA ELISA response (FU) for the entry G4_19 (antibody, human IgG1, V domains shown, also called clone G4_19) VH: EVQLVQSGAEVKKPGASVKVSCKASGYTLTSYYMHWVRQAPGQGLEWMGIINPSGGSTSYAQKFQGRVTMTRDTSTSTVYMELSSLRSEDTAVYYCARERGYSYGDGMDVWGQGTTVTVSS VL: SNFMLTQPHSVSESPGKTVTISCTRSSGSIASNYVQWYQQRPGSPPITLIYDDDQRPSGVPHRFSGSIDTSSNPASLTISGLKTEDEADYYCQSYDSSNHVVFGGGTKLTVLG : 192
